# System: Rattus norvegicus
# PROCEDURE_SUMMARY: Inhibition of apomorphine-induced aggression in male rats after intraperitoneal administration of 25 mg/kg of compound
# Type: functional
# CONDITION_LABEL: ip

{"columns": ["CHEMICAL_STRING", "TESTED_TARGET", "inhibition in vivo at 25 mg/kg, %"],
 "data": [
  ["c1nc(NCC2CC2)c2ncn(CC3CC3)c2n1", "Rattus norvegicus", 28],
  ["CC(=O)N(c1ncnc2c1ncn2C1CC1)C1CC1", "Rattus norvegicus", 22],
  ["CN(C)c1ncnc2c1ncn2CC1CCCCC1", "Rattus norvegicus", 0],
  ["CC(C)N(C)c1ncnc2c1ncn2CC1CC1", "Rattus norvegicus", 32],
  ["CN(C)c1ncnc2c1ncn2C", "Rattus norvegicus", 30],
  ["c1nc(N2CCCCC2)c2ncn(CC3CC3)c2n1", "Rattus norvegicus", 28],
  ["CN(C)c1ncnc2c1ncn2Cc1ccccc1[N+](=O)[O-]", "Rattus norvegicus", 0],
  ["CCCCCn1cnc2c(N(C)C)ncnc21", "Rattus norvegicus", 0],
  ["CN(C)c1ncnc2c1ncn2C1CCCCC1", "Rattus norvegicus", 70],
  ["CN(C)c1ncnc2c1ncn2C1CCCC1", "Rattus norvegicus", 27],
  ["CN(C)c1ncnc2c1ncn2Cc1ccc(O)cc1", "Rattus norvegicus", 0],
  ["c1ccc(Nc2ncnc3c2ncn3CC2CC2)cc1", "Rattus norvegicus", 0],
  ["CC(C)(C)Nc1ncnc2c1ncn2CC1CC1", "Rattus norvegicus", 0],
  ["CN(C)c1ncnc2c1ncn2C1CCCCCC1", "Rattus norvegicus", 0]
]}

All values here come from ChEMBL document CHEMBL1130214.
